Please respond with reported Bedstraw plant response rating for every item in the list.
Tested on: bedstraw
assayName: Test B pre/postemergence bedstraw
Format: in vivo, Galium aparine
conditionSummary: Postemergence, Rate 62 g/ha; scale 0 to 10, 0 is no effect, 10 is complete control
Method: […] At the same time, these crop and weed species were also treated with postemergence applications of test chemicals formulated in the same manner. […] Treated plants and controls were maintained in a greenhouse for twelve to sixteen days, after which all species were compared to controls and visually evaluated. […]
Give bare numbers.

Cc1cc(C)c(-n2c(=O)on(C(=O)N(c3ccc(Cl)cc3)C(C)C)c2=O)c(C)c1 [Compound 61]    2
CC(C)N(C(=O)n1oc(=O)n(Cc2ccccc2)c1=O)c1ccc(F)cc1F [Compound 79]    3

Could you share which Bedstraw plant response rating value was measured for Cc1ccc(N(C(=O)n2oc(=O)n(-c3ccccc3C)c2=O)C(C)C)cc1 [Compound 40] ?
0

###

Kindly state Velvetleaf plant response rating for each of the entries shown.
Test system: velvetleaf
assayName: Test B pre/postemergence velvetleaf
Format: in vivo, Abutilon theophrasti
conditionSummary: Rate 500 g/ha, Postemergence; scale 0 to 10, 0 no effect, 10 complete control
Experimental: […] At the same time, these crop and weed species were also treated with postemergence applications of test chemicals formulated in the same manner. […] Treated plants and controls were maintained in a greenhouse for twelve to sixteen days, after which all species were compared to controls and visually evaluated. […]
Give bare numbers.

Please review the entries below; each comes with its answer.
Cc1ccccc1-n1c(=O)on(C(=O)N(c2ccc(F)c(F)c2)C(C)C)c1=O [Compound 48]    0
Cc1cccc(C(C)C)c1-n1c(=O)on(C(=O)N(c2ccc(Cl)cc2)C(C)C)c1=O [Compound 64]    0
CON=C(Cn1c(=O)on(C(=O)N(c2ccc(F)cc2)C(C)C)c1=O)C(F)(F)F [Compound 227]    3
CC(C)N(C(=O)n1oc(=O)n(-c2cnn(C)c2Cl)c1=O)c1ccc(F)cc1 [Compound 97]    3
CC(C)N(C(=O)n1oc(=O)n(-c2cccnc2)c1=O)c1ccccc1 [Compound 235]    0

Look up Velvetleaf plant response rating for this compound: C=CCn1c(=O)on(C(=O)N(c2ccc(F)cc2)C2CCCCCC2)c1=O [Compound 249]
0

###

System: surinam grass
assayName: Test B pre/postemergence surinam grass
Format: in vivo, Brachiaria decumbens
conditionSummary: Preemergence, Rate 250 g/ha; scale 0 to 10, 0 is no effect, 10 is complete control
Consider the following compounds; for each one, report its B. signalgrass plant response rating.
Give bare numbers.

CC(C)N(C(=O)n1oc(=O)n(CC#N)c1=O)c1ccccc1    0
CC(C)N(C(=O)n1oc(=O)n([C@@H](C)c2ccccc2)c1=O)c1ccccc1    2
CC(C)N(C(=O)n1oc(=O)n(Cc2ccco2)c1=O)c1ccc(Cl)cc1    0

Give B. signalgrass plant response rating for all compounds that follow.
1. C=CCn1c(=O)on(C(=O)N(c2ccc(F)cc2)C2CC2)c1=O
2. CCc1ccc(N(C(=O)n2oc(=O)n(-c3ccccc3C)c2=O)C(C)C)cc1

1: 0; 2: 0
